Each recorded value in this set is attributed to ChEMBL document CHEMBL1124634.

Below, each of the molecules is paired with its reported Inhibition value.
System: Human rhinovirus sp.
method_description: Percent inhibitory activity at 8 uM against rhinoviral 3 serotype in a plaque inhibition assay using monolayers of M-HeLa cells
Assay type: functional
The answer is to be given in %; state only the numeric part.

CSc1ccc(Cn2cnc3c(N(C)C)nc(C(F)(F)F)nc32)cc1
39
Cc1ccc(Cn2cnc3c(N(C)C)nc(C(F)(F)F)nc32)cc1C
39
CN(C)c1nc(C(F)(F)F)nc2c1ncn2Cc1cccc(F)c1
35

Noted for "CN(C)c1nc(C(F)(F)F)nc2c1ncn2Cc1ccc([N+](=O)[O-])cc1" : its Inhibition reads 43
